Assay: protein stability index of a GFP-peptide fusion (yeast GPS) (PSI 1-4); higher = more stable; sorted into four equal gates, so the index is relative within each strain
Details: doa10∆
Listed below: protein stability index values for each entry.

[
  {
    "seqString": "PSDMVIPDHLAELIPEL [SNF12]",
    "protein stability index": 3.09
  }
]

Req: Reported protein stability index, sequence GPSIYKTDPAGYYVGYK [SCL1] : ____
Resp: 3.17

Req: Reported protein stability index, sequence EENEDNDGNNRTNNVPM [NUT1] : ____
Resp: 3.11

Req: Reported protein stability index, sequence EISASESKFILEALRQN [RRP45] : ____
Resp: 2.94

Req: Reported protein stability index, sequence VTGASQFQRLAPSLTVP [PRE2] : ____
Resp: 2.01

Req: Reported protein stability index, sequence FEENDHPNRVLEHLHST [COR1] : ____
Resp: 2.96

Req: Reported protein stability index, sequence VAATITSSQKEPFFLVT [SRB8] : ____
Resp: 1.8

Req: Reported protein stability index, sequence IDYLQRNDKTLELMDSK [POP1] : ____
Resp: 3.06

Req: Reported protein stability index, sequence IVPLHSPFLMGHPMTKS [SEC65] : ____
Resp: 2.76

Req: Reported protein stability index, sequence GLFGNKPNNTANTGGGL [YGL172W/NUP49] : ____
Resp: 3.66

Req: Reported protein stability index, sequence QPQQSTIGGGLFGNKPT [YGR119C/NUP57] : ____
Resp: 2.75

Req: Reported protein stability index, sequence SLQRSKSSFVKESAVIS [SMC1] : ____
Resp: 2.04

Req: Reported protein stability index, sequence KLDKQINMADRSLGLQQ [POP6] : ____
Resp: 3.02

----------
Listed below: protein stability index values for each entry.
Test: protein stability index of a GFP-peptide fusion (yeast GPS) (PSI 1-4); higher = more stable; sorted into four equal gates, so the index is relative within each strain
Conditions: san1∆
Give the figure by itself; no unit, no explanation.

In the examples that follow, each entry is paired with its recorded protein stability index.
[
  {
    "seqString": "IYRDRSTFTKHLIKCFF [ITC1]",
    "readoutNumber": 2.21
  },
  {
    "seqString": "ITLHPSFFGPRMKQYLK [RPB7]",
    "readoutNumber": 1.75
  },
  {
    "seqString": "FLARVIKEKFDEFIKTH [IRR1]",
    "readoutNumber": 2.8
  }
]

Req: Reported protein stability index, sequence RAGIIIAKLSVIPIRRG [RPS2] : ____
Resp: 1.31

Req: Reported protein stability index, sequence LFNKPPSTNAQNVNVPS [YOR098C/NUP1] : ____
Resp: 3.03

Req: Reported protein stability index, sequence PSFTDEQWITIESQMRD [PRP8] : ____
Resp: 2.8

Req: Reported protein stability index, sequence NNSNTVASSTNFTSPTA [SWI1] : ____
Resp: 2.86

----------
Assay: protein stability index of a GFP-peptide fusion (yeast GPS) (PSI 1-4); higher = more stable; sorted into four equal gates, so the index is relative within each strain
Conditions: ubr1∆
Listed below: protein stability index values for each entry.
Give the figure by itself; no unit, no explanation.

[
  {
    "seqString": "SSDGQLKKFRESLVHSA [BRR2]",
    "measuredParameter": "protein stability index",
    "readoutNumber": 3.33
  }
]

Req: Reported protein stability index, sequence ITHYAVRGGNIEIMGIL [RRI1] : ____
Resp: 2.25

Req: Reported protein stability index, sequence AALIASKVYYNLGEYES [RPN2] : ____
Resp: 1.69

Req: Reported protein stability index, sequence LQALKANDEEAYIKLLD [SNF2] : ____
Resp: 2.77

----------
Assay: protein stability index of a GFP-peptide fusion (yeast GPS) (PSI 1-4); higher = more stable; sorted into four equal gates, so the index is relative within each strain
Details: pdr5∆
measuredParameter: protein stability index

[
  {
    "seqString": "SAARGLSLVYEIGGSDL [ECM29]",
    "result": 1.94
  },
  {
    "seqString": "ESSKALADSLDRCVDPE [DIS3]",
    "result": 2.27
  },
  {
    "seqString": "MDYHFIFSYLQFTSSLF [RGR1]",
    "result": 1.39
  },
  {
    "seqString": "LVKIDDLSANQRETMKE [SMC1]",
    "result": 3.22
  },
  {
    "seqString": "GAKVKTMRRQKLTILQE [RET1]",
    "result": 2.35
  }
]

Req: Reported protein stability index, sequence SKSVPTPSLPIAPPVAP [SNF5] : ____
Resp: 2.81

Req: Reported protein stability index, sequence IGGRRFSEGTSADREIQ [RPT4] : ____
Resp: 2.59

Req: Reported protein stability index, sequence SSEYETINISLSFSWAI [NUT1] : ____
Resp: 1.64

Req: Reported protein stability index, sequence DPFKTSSFNKRSKFLST [IRR1] : ____
Resp: 2.46

Req: Reported protein stability index, sequence TANDRQINNVHLIPNEI [RPN4] : ____
Resp: 3.02

----------
Assay: protein stability index of a GFP-peptide fusion (yeast GPS) (PSI 1-4); higher = more stable; sorted into four equal gates, so the index is relative within each strain
Details: doa10∆
We use 3 as the dividing line for protein stability index: on or above the line is YES, below is NO.

See these solved cases before continuing.
[
  {
    "seqString": "RVPIRSEYKVAFPHLYN [PRP8]",
    "label": "NO"
  },
  {
    "seqString": "PNSERETDHANTENNDP [IRR1]",
    "label": "NO"
  },
  {
    "seqString": "LGKRINSAVNNAISNTQ [SRP54]",
    "label": "NO"
  }
]

Req: Does the sequence FQVSNVISLGPNLATFI [YJL039C/NUP192] have recorded protein stability index that is 3 or more?
Resp: NO

Req: Does the sequence GNIFADLLPNSFAKLVP [SMC2] have recorded protein stability index that is 3 or more?
Resp: NO

Req: Does the sequence LGTLVNQKTSAVAALTE [RPL8A] have recorded protein stability index that is 3 or more?
Resp: NO

Req: Does the sequence IGKMYDEYLGSHTDQPA [NNF1] have recorded protein stability index that is 3 or more?
Resp: YES

Req: Does the sequence SGTPITQTESKKEENET [SNF2] have recorded protein stability index that is 3 or more?
Resp: NO

Req: Does the sequence STTTSLHVPNLQPPKTS [SMC4] have recorded protein stability index that is 3 or more?
Resp: NO

Req: Does the sequence GYDIFLNVVLDDAMEIN [SMX2] have recorded protein stability index that is 3 or more?
Resp: YES

Req: Does the sequence YKVDNMTRILPQQSRYI [RPN2] have recorded protein stability index that is 3 or more?
Resp: NO

----------
Experiment: protein stability index of a GFP-peptide fusion (yeast GPS) (PSI 1-4); higher = more stable; sorted into four equal gates, so the index is relative within each strain
Conditions: pdr5∆
measuredParameter: protein stability index
Give the figure by itself; no unit, no explanation.

[
  {
    "seqString": "LNDRFQTLSSHLEALQP [PGD1]",
    "protein stability index": 2.69
  }
]

Req: Reported protein stability index, sequence TTALLKDEEIEKLLQQD [MED8] : ____
Resp: 3.13

Req: Reported protein stability index, sequence LALALGILYMGQGEQVD [RPN1] : ____
Resp: 1.5

Req: Reported protein stability index, sequence SGDSGVYTLACRSCPYE [RPC11] : ____
Resp: 2.01

Req: Reported protein stability index, sequence SNDFEEGSTIRYLAVTL [YMR129W/POM152] : ____
Resp: 2.28

Req: Reported protein stability index, sequence LEAARSEKQNDEEAAGA [PRP8] : ____
Resp: 2.04

Req: Reported protein stability index, sequence LIELSGGQRSLIALSLI [SMC2] : ____
Resp: 2.29

----------
Listed below: protein stability index values for each entry.
Experiment: protein stability index of a GFP-peptide fusion (yeast GPS) (PSI 1-4); higher = more stable; sorted into four equal gates, so the index is relative within each strain
Conditions: doa10∆
Give the figure by itself; no unit, no explanation.

In the examples that follow, each entry is paired with its recorded protein stability index.
[
  {
    "seqString": "TVIRGNSIISLEALDAI [SMX2]",
    "readoutNumber": 2.79
  },
  {
    "seqString": "RDIEKITSLYALIRRDF [CDC53]",
    "readoutNumber": 2.1
  },
  {
    "seqString": "ARDLLTRDEKDPKRLFE [RPS9A]",
    "readoutNumber": 3.37
  },
  {
    "seqString": "PLDRLENVLAIGIAGAH [SKI6]",
    "readoutNumber": 1.26
  },
  {
    "seqString": "IWRKVPGDVLDKDAFIP [SNU114]",
    "readoutNumber": 3.6
  },
  {
    "seqString": "KHDSLRYRLLSDVSDFE [RPN1]",
    "readoutNumber": 2.7
  },
  {
    "seqString": "IIDEIKCIPKKGTVFQF [POP4]",
    "readoutNumber": 1.6
  },
  {
    "seqString": "LQEIYQTDAIKSDEAKW [RPN5]",
    "readoutNumber": 2.34
  },
  {
    "seqString": "GYQWGEENKDIMNVLSE [PRP8]",
    "readoutNumber": 2.8
  },
  {
    "seqString": "AFNQVEIRPEMLGHYLG [RPS15]",
    "readoutNumber": 2.92
  }
]

Req: Reported protein stability index, sequence EFDSDDDDISDDEEDEI [RPN4] : ____
Resp: 3.47

Req: Reported protein stability index, sequence TRQASDLASSKEVLAKI [RPN5] : ____
Resp: 2.92
